Assay: Plasma pharmacokinetics
Type: in vivo, human
Settings: human, plasma, oral, mean terminal half-life, across all doses
readout label: half-life (h)
Give bare numbers, in h.

In: Recorded half-life for O=C(c1ccc(F)c(F)c1Nc1ccc(I)cc1F)N1CC(O)([C@@H]2CCCCN2)C1 [cobimetinib] , please?
Out: 49

Attribution: paper PMC6863157
